# test details: protein stability index of a GFP-peptide fusion (yeast GPS) (PSI 1-4); higher = more stable; sorted into four equal gates, so the index is relative within each strain
# condition notes: pdr5∆
property measured: protein stability index

> print(dat)
                   biopolymer.sequence        property.measured  recorded.measurement
 1            ATLQSNEPTQKDEEETE [DSN1]  protein stability index                  3.18
 2            SLQDLIYKRGQAGVTKA [SMC2]  protein stability index                  1.94
 3           IRLSKILEDDFAVALKN [CDC53]  protein stability index                  3.16
 4           SSSSLECATCHGNLASC [RPO31]  protein stability index                  3.04
 5            TAGKTSVKSARTSTRGR [SNF2]  protein stability index                  3.37
 6            AGNIKCRNDAVNWLAYT [BRR2]  protein stability index                  3.49
 7            PENITKREASRGFFDIL [MCD1]  protein stability index                  3.01
 8            IPVGDNTVVGISGDISD [PRE4]  protein stability index                  3.12
 9            PYQHPPNIFPNLTYYNE [ITC1]  protein stability index                  2.83
10            EIGITQQRIVSAYEASM [RRP4]  protein stability index                  2.98
11          GVIIKVEESGEHVILGN [SNU114]  protein stability index                  2.81
12            VNEPTKNEEAEIEVDEM [RPN1]  protein stability index                  3.22
13           LRLTDVTNSLSNEEKEK [GAL11]  protein stability index                  3.17
14           VGRLWDQTFPINCNKET [ECM29]  protein stability index                  2.87
15           EITSVLSNLHESNKRYR [SNF12]  protein stability index                  3.05
16            MRSTSILTEHLGYPPIS [MTW1]  protein stability index                  2.74
17            TVSPTQDKDAIRKQPDD [SIR2]  protein stability index                  3.11
18            EDFMDIPKPRTAGKTSV [SNF2]  protein stability index                  3.24
19            PNNSRDDYKDLTCSLYE [IRR1]  protein stability index                  2.88
20            PPPPGFEEDSDLALPPP [PRP8]  protein stability index                  3.36
21           EEGEFIIDLYSLPEGLL [TAF14]  protein stability index                  3.54
22            EINLSKIFQTTPEKDLF [YCS4]  protein stability index                  2.29
23          ATGKKSRGINKGHKFNN [RPL15A]  protein stability index                  2.69
24            FVEVERARVTKDLVEIK [RPN5]  protein stability index                  3.44
25            GTPEATKGMITNLQRNV [NUT2]  protein stability index                  2.85
26  DANGVSLFELIVPIFQL [YJL039C/NUP192]  protein stability index                  2.08
27            VDSRNETDHKTNENGET [SRB4]  protein stability index                  2.75
28   DDYSNEDNEMLEDLFSY [YJR042W/NUP85]  protein stability index                  1.94
29            NQVMMDRKIQGWLGALT [ARP7]  protein stability index                  3.18
30   NNNNNNNNSNNIMSASG [YGL172W/NUP49]  protein stability index                  2.48
31            SAIDEEIEELIDSINGP [SMC3]  protein stability index                  3.24
32          NRQAAASVVPSASSLVI [RPL12A]  protein stability index                  2.17
33            LRRIITDLNQDSAAIIA [GRR1]  protein stability index                  2.31
34           HEEDQKTNIIEKAMDYA [RPN12]  protein stability index                  2.75
35            MENIKKSIDSKTPEEVE [ISW2]  protein stability index                  3.09
36            FKNDFNSFYYTSLLYLS [RPN9]  protein stability index                  1.81
37    PSTTLFNFGGKSDTVTS [YOR098C/NUP1]  protein stability index                  2.32
38            ERSKQLNEKFQELRKKV [SMC2]  protein stability index                  2.78
39            KEDADLKRMEILKSPHL [SIR4]  protein stability index                  2.95
40            DFNEIVQYLSGAHGNSD [POP3]  protein stability index                  1.22
41            YFRILLPYERHMISQEG [SWI1]  protein stability index                  1.54
42    ISQLYSDAVMAEHSQNK [YJL041W/NSP1]  protein stability index                  2.83
43           AGDIQLQYGWKVERHIM [RPO21]  protein stability index                  1.24
44           KDRLYCGKCHSVYKVNA [RPS31]  protein stability index                  2.26
45            NGAVGKREGKTRLLNIV [ISW2]  protein stability index                  2.95
46            LVDILPPDSDSSISVMG [RPT3]  protein stability index                  2.27
47           IMELPGVYSDDELLSQL [SRP68]  protein stability index                  3.13
48            TEEELQAAVPDNAEDDS [BRN1]  protein stability index                  3.14
49            SLQSSSQTQLENANAAN [MED2]  protein stability index                   2.6
50           VDNIVNKYQYSLKQYAG [SRP68]  protein stability index                  3.08
51            YHGNECEINYYEILLKI [SRB8]  protein stability index                  2.86
52            LLFEDLFKKFNNDFKLS [RET1]  protein stability index                  1.39
53            NEYPVADAVTKDLKLRR [REC8]  protein stability index                  3.23
54          EAKKFEPTYRLVRYGLA [RPS24A]  protein stability index                  3.11
55            NLNDAGLALQLFKKLKE [RPN2]  protein stability index                  2.69
56            KPANASHAIRLGNGVAC [RGR1]  protein stability index                  3.06
57   KSWLNRLNNWLFGWNDL [YMR153W/NUP53]  protein stability index                  2.33
58          NGRLNKCGVISPRFNVK [RPS22A]  protein stability index                  2.85
59            LLNEYRPHQSRESLIML [MED7]  protein stability index                  2.15
60            ILTIIEEYKKSLYAYCH [GRR1]  protein stability index                  1.33

Every entry's value here was drawn from the supplement of paper PMC9732359.
